meta.source: ChEMBL document CHEMBL5236647

# targetDesc: UniProt:Q01433
# Sequence (whole entry): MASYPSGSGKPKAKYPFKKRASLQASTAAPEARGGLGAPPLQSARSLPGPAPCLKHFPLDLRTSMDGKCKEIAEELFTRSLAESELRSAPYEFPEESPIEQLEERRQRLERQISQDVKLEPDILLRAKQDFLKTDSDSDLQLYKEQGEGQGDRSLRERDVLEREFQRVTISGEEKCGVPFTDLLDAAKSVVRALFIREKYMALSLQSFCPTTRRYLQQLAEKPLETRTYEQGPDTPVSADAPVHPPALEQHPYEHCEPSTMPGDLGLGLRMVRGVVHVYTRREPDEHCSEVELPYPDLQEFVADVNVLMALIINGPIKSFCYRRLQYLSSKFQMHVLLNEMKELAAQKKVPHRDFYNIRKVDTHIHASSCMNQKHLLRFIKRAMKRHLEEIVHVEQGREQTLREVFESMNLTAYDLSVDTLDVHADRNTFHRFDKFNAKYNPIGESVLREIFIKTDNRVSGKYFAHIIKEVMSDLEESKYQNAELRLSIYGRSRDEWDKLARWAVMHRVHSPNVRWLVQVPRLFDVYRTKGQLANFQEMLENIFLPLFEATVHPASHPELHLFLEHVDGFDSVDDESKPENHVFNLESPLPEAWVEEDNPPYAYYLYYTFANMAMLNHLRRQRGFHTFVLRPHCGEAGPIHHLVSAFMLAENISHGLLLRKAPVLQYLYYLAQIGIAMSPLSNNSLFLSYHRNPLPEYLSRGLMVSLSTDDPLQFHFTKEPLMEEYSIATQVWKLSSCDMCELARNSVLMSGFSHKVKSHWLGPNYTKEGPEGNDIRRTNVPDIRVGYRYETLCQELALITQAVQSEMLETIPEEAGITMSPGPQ
# assayRemarks: Selectivity ratio of IC50 for recombinant human AMPD2 using AMP as substrate incubated for 30 mins by spectrophotometric analysis to IC50 for recombinant human AMPD2 using AMP as substrate preincubated for 30 mins followed by substrate addition and measured after 30 mins by spectrophotometric analysis
measureName: Ratio IC50

The following compounds have reported results that may help.
* CC1(C)CN(C(N)=O)c2ccccc2N1Cc1ccc(CCc2ccccc2)cc1 | 15
* Cc1cccc(CN2c3ccccc3N(C(N)=O)CC2(C)C)c1 | 7.5
* CC1(C)CN(C(N)=O)c2cc(F)ccc2N1Cc1ccccc1 | 8.2
* Cc1cccc2c1N(Cc1ccccc1)C(C)(C)CN2C(N)=O | 2.3
* CC1(C)CN(C(N)=O)c2ccccc2N1Cc1ccc(COc2ccccc2)cc1 | 25

P: CC1(C)CN(C(N)=O)c2c(F)cccc2N1Cc1ccccc1
Q: CC1(C)CN(C(N)=O)c2ccccc2N1Cc1ccc(OC(F)(F)F)cc1
Query :: Which shows the larger Ratio IC50 value: P or Q ? Response format: the label of the selected entry.
Result :: Q

1: CC(=O)N1CC(C)(C)N(Cc2ccccc2)c2ccccc21
2: CC1(C)CN(C(N)=O)c2ccccc2N1Cc1cccc(OC(F)(F)F)c1
3: CC1(C)CN(C(N)=O)c2cc(F)cc(F)c2N1Cc1ccccc1
Query :: Ordering: ascending Ratio IC50. # format: label list in the order the request specifies
Result :: 1, 2, 3
(1: 1.4, 2: 9.2, 3: 16)

I: Cc1ccc(CN2c3ccccc3N(C(N)=O)CC2(C)C)cc1
II: CC1(C)CN(C(N)=O)c2ccc(F)cc2N1Cc1ccccc1
Query :: Lower value of Ratio IC50 belongs to which: I or II ? Response format: the label of the selected entry.
Result :: II
(II: 4.6, I: 8.2)

1: CC1(C)CN(C(N)=O)c2ccc(F)c(F)c2N1Cc1ccccc1
2: CC1(C)CN(C(N)=O)c2ccccc2N1Cc1ccc(OCc2ccccc2)cc1
Query :: Which shows the larger Ratio IC50 value: 1 or 2 ? Response format: the label of the selected entry.
Result :: 1
(1: 33, 2: 4.2)
